Each recorded value in this set is attributed to the Kinase Knowledgebase extract (Sharma et al. 2016).

- TESTED_TARGET: MAPK14 (human) (UniProt Q16539)
- Sequence (Q16539 whole entry, looked up): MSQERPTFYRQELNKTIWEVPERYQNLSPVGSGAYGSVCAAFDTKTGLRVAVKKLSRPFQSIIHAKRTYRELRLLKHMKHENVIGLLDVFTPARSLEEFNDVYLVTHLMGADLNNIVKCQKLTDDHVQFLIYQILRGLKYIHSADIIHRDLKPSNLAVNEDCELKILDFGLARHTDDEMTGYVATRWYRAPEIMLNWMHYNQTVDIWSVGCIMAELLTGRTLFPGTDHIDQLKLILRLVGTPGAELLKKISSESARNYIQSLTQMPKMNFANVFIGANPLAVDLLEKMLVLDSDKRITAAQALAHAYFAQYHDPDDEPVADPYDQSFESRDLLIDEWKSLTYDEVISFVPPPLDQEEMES
- MEASUREMENT_NOTES: Inhibition of MAPK14 by Human Whole Blood Assay
- CONDITION_DETAILS: blood cells
pIC50: −log10 of the molar value.
OBSERVATION_TYPE: pIC50

Can you give me pIC50 for all of these, one by one?
1. CCN(C(=O)c1ccc2c(c1)CCC2)c1ccnc(N[C@@H](C)c2ccccc2)n1
2. COc1ccc([C@H](C)Nc2cc(N(Cc3ccc(F)cc3)C(=O)c3ccc4ccccc4c3)ccn2)cc1
3. CCN(C(=O)c1cccc(C)c1C)c1ccnc(N[C@@H](C)c2ccccc2)n1
4. CC(C)Nc1nccc(N(C)C(=O)c2ccc3ccccc3c2)n1
5. CCC(C)Nc1nccc(N(CC2CCNCC2)C(=O)c2ccc3c(c2)CCO3)n1 (stereo not given)

Output:
> 6.00
≥ 6.00
> 6.00
≥ 6.00
> 6.00

Can you give me pIC50 for all of these, one by one?
1. CC(C)Nc1nccc(N(CCCCN2CCCC2)C(=O)c2ccc3c(c2)CCO3)n1
2. CCN(C(=O)c1cccc(C)c1)c1ccnc(N[C@@H](C)c2ccccc2)n1
3. O=C(c1ccc2ccccc2c1)N(Cc1ccc(F)cc1)c1ccnc(NCc2ccccc2)c1
4. CCN(C(=O)c1ccc2snnc2c1)c1ccnc(N[C@@H](C)c2ccccc2)n1
5. CCN(C(=O)c1ccc2occc2c1)c1ccnc(N[C@@H](C)c2ccccc2)n1
6. O=C(c1ccc2c(c1)CCC2)N(CC1CC1)c1ccnc(NC2CCC(O)CC2)n1 (stereo not given)
7. C[C@H](Nc1nccc(N(CC2CCN(C3CCCC3)CC2)C(=O)c2ccc3c(c2)CCO3)n1)c1ccccc1

Output:
1: > 6.00; 2: > 6.00; 3: ≥ 6.00; 4: ≥ 6.00; 5: > 6.00; 6: > 6.00; 7: > 6.00

Can you give me pIC50 for all of these, one by one?
1. COCCN(C(=O)c1ccc2c(c1)CCC2)c1ccnc(N[C@@H](C)c2ccccc2)n1
2. CC(C)Nc1nccc(N(CCC[C@@H](N)C(=O)N(C)C)C(=O)c2ccc3c(c2)CCO3)n1

Output:
> 6.00
> 6.00
